Assay: HILIC, Waters ACQUITY UPLC BEH Amide, 100 × 2.1 mm, 1.7 µm; A: water + 0.125% formic acid + 10 mM ammonium formate; B: 5% water + 95% acetonitrile + 0.125% formic acid + 10 mM ammonium formate; gradient (min/%B) 0/100 2/100 7.7/70 9.5/40 10.25/30 12.75/100 17/100
Settings: stereoisomer not certain
Each item that follows carries a reported LC retention time.
Report only the number, with the unit min understood.

| Compound | Readout value |
| --- | --- |
| NCC1CCC(C(=O)Oc2ccc(CCC(=O)O)cc2)CC1 (centres undefined) [Cetraxate] | 5.29 |

Inquiry: # input compound: CCC(COC(=O)c1cc(OC)c(OC)c(OC)c1)(c1ccccc1)N(C)C (centres undefined) ; wanted: its LC retention time
Reply text: 1.47

Inquiry: Entry CC(CO)CCNc1ncnc2nc[nH]c12 (centres undefined) [Dihydrozeatin] : reported LC retention time = ?
Reply text: 2.99

====

Experiment: HILIC, Waters ACQUITY UPLC BEH Amide, 100 × 2.1 mm, 1.7 µm; A: water + 0.125% formic acid + 10 mM ammonium formate; B: 5% water + 95% acetonitrile + 0.125% formic acid + 10 mM ammonium formate; gradient (min/%B) 0/100 2/100 7.7/70 9.5/40 10.25/30 12.75/100 17/100
Details: stereoisomer not certain
Measured endpoint: LC retention time
Remember to follow the number with its unit.

| Molecule | LC retention time |
| --- | --- |
| O=C(O)CCC(=O)O | 4.46 min |
| COC(=O)c1cc(O)c(O)c(O)c1 [Methylgallate] | 1.43 min |
| O=C(O)CCc1ccccc1 [Hydrocinnamic acid] | 8.71 min |
| c1ccc(Cn2ccnc2)cc1 | 1.63 min |
| CC(C)C(=O)C(=O)O | 2.84 min |

Turning now to a further molecule:
Inquiry: Requested field: LC retention time. Item: Nc1nc(N)nc(-c2cc(Cl)ccc2Cl)n1
Reply text: 1.25 min

====

# LC retention time annotations
Test: HILIC, Waters ACQUITY UPLC BEH Amide, 100 × 2.1 mm, 1.7 µm; A: water + 0.125% formic acid + 10 mM ammonium formate; B: 5% water + 95% acetonitrile + 0.125% formic acid + 10 mM ammonium formate; gradient (min/%B) 0/100 2/100 7.7/70 9.5/40 10.25/30 12.75/100 17/100
Conditions: stereoisomer not certain
Please respond with the number in min and leave the unit unwritten.

Example cases with answers are listed next.
| Compound | LC retention time (min) |
| --- | --- |
| CCOC(=O)C1=C(C)NC(C)=C(C(=O)OC)C1c1cccc([N+](=O)[O-])c1 (stereo not given) | 0.95 |
| CN(CC=CC#CC(C)(C)C)Cc1cccc2ccccc12 | 1.33 |
| O=C(NCCN1CCOCC1)c1ccc(Cl)cc1 [Moclobemide] | 2.03 |
| CC(=O)CC(c1ccccc1)c1c(O)c2ccccc2oc1=O (stereo not given) | 0.99 |

API: the following record is the query input.
Inquiry: Record request: LC retention time value, item CC12CCC3C(CC=C4CC(O)CCC43C)C1CCC2=O (stereo not given) [Dehydroepiandrosterone]
Reply text: 1.03

====

Experiment: HILIC, Waters ACQUITY UPLC BEH Amide, 100 × 2.1 mm, 1.7 µm; A: water + 0.125% formic acid + 10 mM ammonium formate; B: 5% water + 95% acetonitrile + 0.125% formic acid + 10 mM ammonium formate; gradient (min/%B) 0/100 2/100 7.7/70 9.5/40 10.25/30 12.75/100 17/100
Settings: stereoisomer not certain
Measured endpoint: LC retention time (min)
Give the value in min but do not write min after it.

Inquiry: Query (compound): CC(=O)NC(CCCN=C(N)N)C(=O)O [N-.alpha.-Acetyl-L-arginine] ; field requested: LC retention time
Reply text: 8.16

Inquiry: Fill in: LC retention time of NC(N)=NCCC(=O)O [3-Guanidinopropionic acid] is ___
Reply text: 8.15

Inquiry: # get_value(readout='LC retention time', item= Nc1c(O)cccc1C(=O)CC(N)C(=O)O (centres undefined) [3-Hydroxykynurenine] )
Reply text: 7.35

Inquiry: Using the record for Cc1cc2nc3c(=O)[nH]c(=O)nc-3n(CC(O)C(O)C(O)COP(=O)(O)OP(=O)(O)OCC3OC(n4cnc5c(N)ncnc54)C(O)C3O)c2cc1C (centres undefined) , report its LC retention time.
Reply text: 9.52
